system: Adenosine receptor A3 (Homo sapiens) (UniProt P0DMS8)
Sequence (P0DMS8 whole entry): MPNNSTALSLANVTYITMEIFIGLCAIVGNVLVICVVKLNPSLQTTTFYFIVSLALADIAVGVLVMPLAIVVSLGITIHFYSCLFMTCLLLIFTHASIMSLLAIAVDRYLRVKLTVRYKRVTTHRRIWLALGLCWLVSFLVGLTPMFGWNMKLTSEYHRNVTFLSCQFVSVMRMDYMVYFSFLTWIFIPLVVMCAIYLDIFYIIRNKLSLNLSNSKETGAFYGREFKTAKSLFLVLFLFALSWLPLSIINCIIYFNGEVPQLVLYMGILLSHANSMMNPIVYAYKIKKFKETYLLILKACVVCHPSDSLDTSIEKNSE
measurement_notes: Inhibition of human adenosine A3 receptor in production of cAMP in CHO cells
Format: functional, cell-based
Label scheme for Efficacy: lower than 40% is rule not met, 40% and above is rule met.

As a guide, the following entries are already answered.
1) N#Cc1c(N)nc(SCc2ncc[nH]2)c(C#N)c1-c1cccc(O)c1; rule met
2) N#Cc1c(N)nc(SCc2ncc[nH]2)c(C#N)c1-c1ccc(O)cc1; rule not met
3) N#Cc1c(N)nc(SCc2ncc[nH]2)c(C#N)c1-c1ccccc1; rule met

I'd appreciate it if you could say whether COc1ccc(-c2c(C#N)c(N)nc(SCc3ncc[nH]3)c2C#N)cc1 has Efficacy at least equal to 40%. rule met

---

# collection of EC50 values tested on Adenosine receptor A2b (Homo sapiens, UniProt P29275)

EC50 lookup needed for COc1ccc(-c2c(C#N)c(N)nc(SCc3ncc[nH]3)c2C#N)cc1 , thanks. 9 nM

---

# collection of Ki values tested on Adenosine receptor A2a (Homo sapiens)
# Sequence (P29274 whole entry): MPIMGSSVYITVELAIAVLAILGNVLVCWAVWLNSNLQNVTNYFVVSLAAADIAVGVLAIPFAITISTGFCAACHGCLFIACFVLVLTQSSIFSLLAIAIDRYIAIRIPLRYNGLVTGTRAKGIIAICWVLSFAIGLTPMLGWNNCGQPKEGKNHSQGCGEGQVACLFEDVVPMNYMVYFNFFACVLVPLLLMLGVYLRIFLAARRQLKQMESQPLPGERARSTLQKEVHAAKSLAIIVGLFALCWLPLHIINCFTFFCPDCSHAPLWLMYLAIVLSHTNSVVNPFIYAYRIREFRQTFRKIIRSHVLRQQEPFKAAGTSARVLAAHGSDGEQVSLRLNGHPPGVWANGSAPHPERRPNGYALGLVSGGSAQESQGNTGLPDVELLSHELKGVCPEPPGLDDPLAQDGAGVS

Example cases with answers are listed next.
1) COc1ccc(-c2c(C#N)c(N)nc(SCc3ncc[nH]3)c2C#N)cc1; 214 nM
2) N#Cc1c(N)nc(SCc2ncc[nH]2)c(C#N)c1-c1ccc(O)cc1; 28 nM

Okay, now this compound:
Ki lookup needed for N#Cc1c(N)nc(SCc2ncc[nH]2)c(C#N)c1-c1cccc(O)c1 , thanks. 21 nM

---

Below: a set of entries, each annotated with reported Efficacy.
system: Adenosine receptor A2b (Homo sapiens) (UniProt P29275)
Sequence (whole entry): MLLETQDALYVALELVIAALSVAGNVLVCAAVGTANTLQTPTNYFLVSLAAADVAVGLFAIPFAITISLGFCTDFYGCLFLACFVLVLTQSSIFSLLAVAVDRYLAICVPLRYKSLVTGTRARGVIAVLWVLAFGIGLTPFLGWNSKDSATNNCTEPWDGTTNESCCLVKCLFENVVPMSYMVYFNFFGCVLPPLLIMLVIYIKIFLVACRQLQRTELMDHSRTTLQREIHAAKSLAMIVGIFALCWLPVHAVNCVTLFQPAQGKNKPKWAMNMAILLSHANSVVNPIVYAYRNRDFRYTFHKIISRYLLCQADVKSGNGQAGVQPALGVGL
measurement_notes: Stimulation of human adenosine A2B receptor in production of cAMP in CHO cells
Type: functional, cell-based
Number in %, nothing else.

Example cases with answers are listed next.
1. COc1ccc(-c2c(C#N)c(N)nc(SCc3ncc[nH]3)c2C#N)cc1; 33
2. N#Cc1c(N)nc(SCc2ncc[nH]2)c(C#N)c1-c1ccccc1; 81
3. N#Cc1c(N)nc(SCc2ncc[nH]2)c(C#N)c1-c1cccc(O)c1; 92
4. COc1cccc(-c2c(C#N)c(N)nc(SCc3ncc[nH]3)c2C#N)c1; 68

Efficacy lookup needed for N#Cc1c(N)nc(SCc2ncc[nH]2)c(C#N)c1-c1ccc(O)cc1 , thanks. 74

---

Below: a set of entries, each annotated with reported Efficacy.
system: Adenosine receptor A1 (Homo sapiens) (UniProt P30542)
Sequence (P30542 whole entry): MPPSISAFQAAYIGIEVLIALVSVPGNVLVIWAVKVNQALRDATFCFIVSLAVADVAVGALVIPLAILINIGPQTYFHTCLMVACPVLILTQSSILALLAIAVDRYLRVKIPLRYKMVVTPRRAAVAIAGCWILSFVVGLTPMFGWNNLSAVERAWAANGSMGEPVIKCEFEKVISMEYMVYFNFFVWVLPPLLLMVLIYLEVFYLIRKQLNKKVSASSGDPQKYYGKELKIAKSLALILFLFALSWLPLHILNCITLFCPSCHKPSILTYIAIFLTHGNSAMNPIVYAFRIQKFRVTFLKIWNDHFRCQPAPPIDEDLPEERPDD
measurement_notes: Inhibition of human adenosine A1 receptor in production of cAMP in CHO cells
Assay type: functional, cell-based

Example cases with answers are listed next.
1) N#Cc1c(N)nc(SCc2ncc[nH]2)c(C#N)c1-c1ccccc1; 109%
2) N#Cc1c(N)nc(SCc2ncc[nH]2)c(C#N)c1-c1ccc(O)cc1; 103%
3) N#Cc1c(N)nc(SCc2ncc[nH]2)c(C#N)c1-c1cccc(O)c1; 112%
4) COc1cccc(-c2c(C#N)c(N)nc(SCc3ncc[nH]3)c2C#N)c1; 80%

Okay, now this compound:
Efficacy lookup needed for COc1ccc(-c2c(C#N)c(N)nc(SCc3ncc[nH]3)c2C#N)cc1 , thanks. 46%

---

Below: a set of entries, each annotated with reported EC50.
Protein target, amino acids: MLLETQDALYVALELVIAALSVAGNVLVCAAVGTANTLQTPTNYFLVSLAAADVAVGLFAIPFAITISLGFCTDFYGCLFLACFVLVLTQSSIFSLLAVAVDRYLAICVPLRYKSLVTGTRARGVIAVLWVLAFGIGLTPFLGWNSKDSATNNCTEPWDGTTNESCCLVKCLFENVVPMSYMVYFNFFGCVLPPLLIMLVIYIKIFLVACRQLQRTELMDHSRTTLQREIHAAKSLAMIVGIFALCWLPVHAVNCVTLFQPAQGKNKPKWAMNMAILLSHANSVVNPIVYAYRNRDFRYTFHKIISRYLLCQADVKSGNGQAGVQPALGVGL
Number in nM, nothing else.

Example cases with answers are listed next.
1) COc1cccc(-c2c(C#N)c(N)nc(SCc3ncc[nH]3)c2C#N)c1; 34
2) N#Cc1c(N)nc(SCc2ncc[nH]2)c(C#N)c1-c1cccc(O)c1; 10

Okay, now this compound:
EC50 lookup needed for N#Cc1c(N)nc(SCc2ncc[nH]2)c(C#N)c1-c1ccc(O)cc1 , thanks. 12
